Test: qHTS for Activators of p53 Stress Response Pathway screened against the NCATS CANVASS Library (AID 1347388)
Settings: p53RE-bla HCT-116, beta-lactamase reporter, 16 h; series mostly up to 46.1 µM
Inconclusive results are not listed. Activity calls are given as the source filed them. Calls follow the shape of the dose curve; as a rule, active = well fitted activation curve with a large enough effect; inconclusive = small, poorly fitted or top-dose-only effect; inactive = flat fitted curve, though single readings scatter.
Labels: Yes for active, No for inactive

COMPOUND	CLASSIFICATION
Cc1cc(O)cc2c1C(=O)c1c(O)cc(O)cc1C2=O	No
COC1C(C)OC(OCC23C[C@@H]4[C@H](C)CC[C@H]4C4(C=O)CC2C=C(C(C)C)C34C(=O)O)[C@@H](O)[C@H]1O (stereo partly drawn)	No
CC1=C[C@H]2[C@H]3C(=O)C(c4ccc(O)cc4)=C[C@@]3(c3ccc(O)cc3)[C@@H]1C(=O)[C@]2(C)O	Yes
